system.name: T1, PmrAC (C-terminal effector/DNA-binding domain of PmrA) (Klebsiella pneumoniae, UniProt W9BNR5 121-223)
T1 sequence: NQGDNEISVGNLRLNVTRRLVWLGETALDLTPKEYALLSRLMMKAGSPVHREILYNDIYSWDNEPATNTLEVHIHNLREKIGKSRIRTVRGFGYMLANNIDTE
assay.notes: fluorescence polarization; two-site fit, first site (half1); 20 mM sodium phosphate, 30 mM NaCl, pH 6.0; FP with 12 nM 6-FAM DNA (temperature not stated); ITC plus 0.5 mM EDTA at 25 C; NMR at 298 K
recorded.conditions: protein: recombinant; tags: N-terminal extra Met; chain copies: 2; label: 5' 6-FAM (fluorescence polarization); none (NMR); blunt
recorded.endpoint: Kd

Short answer for box1 (dsDNA) DNA 1: ATTTCTTAATATTATCCTAAGCAAG DNA 2: CTTGCTTAGGATAATATTAAGAAAT : Kd was 190 nM
